targetOfAssay: MAL^TIR (Homo sapiens, UniProt P58753)
Construct: MAL (residues 79–221); 6xHis; made in house; host or cells: E. coli BL21 (DE3)
Sequence (P58753 79-221): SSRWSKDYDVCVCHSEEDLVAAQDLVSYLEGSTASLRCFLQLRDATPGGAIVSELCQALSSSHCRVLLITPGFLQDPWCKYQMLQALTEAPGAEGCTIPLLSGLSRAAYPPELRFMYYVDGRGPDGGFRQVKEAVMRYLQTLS
testProtocol: T‐Surf phage library (P8 and P3) selection against MAL^TIR, four rounds, NGS read counts
Format: binding
statedConditions: P3 library, selection against MAL TIR; rank by count before grouping
reportedProperty: P3_MAL Rank (before)

Some solved entries appear below for comparison.
# sequenceInput, targetOfAssay, P3_MAL Rank (before)
records = [
    ("YAFTGHLHCYLVQRGI", "MAL^TIR (Homo sapiens, UniProt P58753)", 1375),
    ("YAFTGHVHRYMVQRGV", "MAL^TIR (Homo sapiens, UniProt P58753)", 1362),
    ("RGFLSHLRHHLPAKEH", "MAL^TIR (Homo sapiens, UniProt P58753)", 2395),
    ("ESILNQLRRSSESIAK", "MAL^TIR (Homo sapiens, UniProt P58753)", 2053),
    ("NHSRNALTAAANLSGW", "MAL^TIR (Homo sapiens, UniProt P58753)", 3433),
    ("RGFLSKLSQHILKREK", "MAL^TIR (Homo sapiens, UniProt P58753)", 894),
    ("SSFREGLWRLLELRQK", "MAL^TIR (Homo sapiens, UniProt P58753)", 3147),
    ("YLKWGYPGLWDRLRFA", "MAL^TIR (Homo sapiens, UniProt P58753)", 1517),
    ("NNLFNALVSKNIRTFM", "MAL^TIR (Homo sapiens, UniProt P58753)", 3481),
    ("YAFTSHLHRSLVQRGV", "MAL^TIR (Homo sapiens, UniProt P58753)", 1473),
]

I. SSFLSHLFDALQRKQI
II. GWFREGLWRLLELSKK
III. PNLRTKLLNYLMHTKT
IV. WFWDKLIYALSRNPH
// query Arrange by P3_MAL Rank (before), high to low. The labels, placed in the requested order, form the answer.
// result III, II, I, IV
(III: 2742, II: 1756, I: 1020, IV: 712)

a. YAFTGHLHRYLVQRSGI
b. LQNHCKLALTKVANLV
// query Consider a and b . Which of these has its P3_MAL Rank (before) at a higher number? Please identify the chosen entry by its label.
// result b

1. SSFRDGLWRLPELSKK
2. LKWAIRIFGANCVMR
3. ESILNQLRRSSQSFAT
4. YAFTGHLTGYLVQRGV
// query Arrange by P3_MAL Rank (before), high to low. The labels, placed in the requested order, form the answer.
// result 1, 3, 4, 2

A. SSFRDGLWRLLELRKK
B. LQNQWKLALTKVAKLE
// query Consider A and B . Which of these has its P3_MAL Rank (before) at a higher number? Please identify the chosen entry by its label.
// result A
(A: 3129, B: 2160)
